Measured values drawn from patent US20240041042A1 for this set.

test system: Matricaria inodora (MATIN); assay: Post-emergence herbicidal action against MATIN; assay type: in vivo; conditions: dosage 80 g/ha
Catalogue of Post-emergence action against MATIN in % readings, one per entry.

{"chemicalSmiles": "C=C(COC(=O)COc1nn(-c2ccccn2)c(-c2ccc(F)nc2)c1Br)C(=O)OC", "readoutUnits": "%", "Post-emergence action against MATIN in %": 80}
{"chemicalSmiles": "COC(=O)[C@@H](C)Oc1nn(-c2ncccc2F)c(-c2ccc(F)nc2)c1C(F)(F)F", "readoutUnits": "%", "Post-emergence action against MATIN in %": 80}
{"chemicalSmiles": "COC(=O)[C@@H](C)Oc1nn(-c2ncccc2F)c(-c2cccnc2)c1Br", "readoutUnits": "%", "Post-emergence action against MATIN in %": 80}
{"chemicalSmiles": "COC(=O)COc1nn(-c2nc(F)ccc2F)c(-c2cncc(F)c2)c1Cl", "readoutUnits": "%", "Post-emergence action against MATIN in %": 80}
{"chemicalSmiles": "COC(=O)[C@@H](C)Oc1nn(-c2ccccn2)c(-c2cncc(F)c2)c1Cl", "readoutUnits": "%", "Post-emergence action against MATIN in %": 90}
{"chemicalSmiles": "C[C@@H](Oc1nn(-c2ncccc2F)c(-c2cncc(F)c2)c1C1CC1)C(=O)O", "readoutUnits": "%", "Post-emergence action against MATIN in %": 80}
{"chemicalSmiles": "COC(=O)CNC(=O)COc1nn(-c2ccccn2)c(-c2ccc(F)nc2)c1Br", "readoutUnits": "%", "Post-emergence action against MATIN in %": 80}
{"chemicalSmiles": "COC(=O)[C@@H](C)Oc1nn(-c2ncccc2F)c(-c2cncc(F)c2)c1C1CC1", "readoutUnits": "%", "Post-emergence action against MATIN in %": 90}
{"chemicalSmiles": "CCOC(=O)[C@@H](C)Oc1nn(-c2ncccc2F)c(-c2ccc(F)nc2)c1Br", "readoutUnits": "%", "Post-emergence action against MATIN in %": 80}
{"chemicalSmiles": "COC(=O)CSc1nn(-c2ccccn2)c(-c2cncc(F)c2)c1Br", "readoutUnits": "%", "Post-emergence action against MATIN in %": 80}
